In this section we review reported LC retention time values for a set of molecules.
# assayRemarks: RP, Waters ACQUITY UPLC HSS T3, 100 × 2.1 mm, 1.8 µm, 30 °C, 0.3 mL/min, estimated dead time 0.73 min; A: water + 0.1% formic acid, pH 3; B: methanol + 0.1% formic acid, pH 3; gradient (min/%B) 0/0 6/0 56/100 60/100
# conditionDescription: stereoisomer not certain
Entry rule: numbers only, all in min.

Worked examples follow.
molecule | measuredAttribute | valueUnit | recordedResult
CC(O)(CC(=O)O)C(=O)O (stereo not given) [citramalic acid] | LC retention time | min | 5.18
CCCCCCCCC=CCCCCCCCC(=O)O [oleic acid] | LC retention time | min | 54.9
N[C@@H](Cc1ccc(O)cc1)C(=O)O [L-tyrosine] | LC retention time | min | 6.08
COc1cc(-c2oc3cc(O)cc(O)c3c(=O)c2O)cc(OC)c1O [syringetin] | LC retention time | min | 37.4

INPUT: Note down LC retention time recorded for COc1cc(C(C)=O)ccc1O [Acetovanillone]
OUTPUT: 23.9

INPUT: Note down LC retention time recorded for Nc1ncnc2c1ncn2C1OC(CO)C(O)C1OP(=O)(O)O (stereo not given) [adenosine 2'-monophosphate]
OUTPUT: 10.9

INPUT: Note down LC retention time recorded for CC(=CCC1=C(C)C(=O)c2ccccc2C1=O)CCCC(C)CCCC(C)CCCC(C)C (stereo not given) [vitamin K1]
OUTPUT: 57.7

INPUT: Note down LC retention time recorded for O=c1c(O)c(-c2ccc(O)cc2)oc2cc(O)cc(O)c12 [kaempferol]
OUTPUT: 36.6

INPUT: Note down LC retention time recorded for CC[C@H](C)[C@H](N)C(=O)O [L-isoleucine]
OUTPUT: 4.62

INPUT: Note down LC retention time recorded for OCc1ccccc1OC1OC(CO)C(O)C(O)C1O (stereo not drawn) [D(-)-Salicin]
OUTPUT: 16.1

INPUT: Note down LC retention time recorded for O=C(O)CNC(=O)c1ccccc1 [hippuric acid]
OUTPUT: 17.3

INPUT: Note down LC retention time recorded for OCC1OC(Oc2cc3c(O)cc(O)cc3[o+]c2-c2cc(O)c(O)c(O)c2)C(O)C(O)C1O (stereo not given) [delphinidin-3-glucoside]
OUTPUT: 20.9

INPUT: Note down LC retention time recorded for CCCCCCC=CCCCCCCCC(=O)OC [methyl palmitoleate]
OUTPUT: 54.9

INPUT: Note down LC retention time recorded for O=C(O)CCCCC(=O)O [adipic acid]
OUTPUT: 15.5

INPUT: Note down LC retention time recorded for CN1CCCC1c1cccnc1 (stereo not given) [nicotine]
OUTPUT: 4.64
